Data provenance: patent US20220281976A1

Listed next: entries and their corresponding DC MFI.
measurement target: T1, human CD33 (human, UniProt P20138 18-364)
T1 construct: CD33 on human primary dendritic cells, macrophages, monocytes and T cells and on CHO cells expressing recombinant human CD33; also called Siglec-3; hCD33
T1 sequence (P20138 18-364): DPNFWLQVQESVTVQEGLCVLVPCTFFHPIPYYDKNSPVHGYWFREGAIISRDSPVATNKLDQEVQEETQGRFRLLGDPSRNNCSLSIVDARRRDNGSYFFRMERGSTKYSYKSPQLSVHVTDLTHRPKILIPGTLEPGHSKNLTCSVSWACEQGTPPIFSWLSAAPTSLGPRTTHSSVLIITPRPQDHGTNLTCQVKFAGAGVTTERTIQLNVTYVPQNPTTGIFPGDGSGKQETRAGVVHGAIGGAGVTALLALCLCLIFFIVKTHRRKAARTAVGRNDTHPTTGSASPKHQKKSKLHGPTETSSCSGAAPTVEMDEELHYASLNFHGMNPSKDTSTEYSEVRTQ
test protocol: flow cytometry, human primary dendritic cells;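 note: binding of anti-CD33 antibodies (10 ug/ml, 1 h on ice) to human primary dendritic cells, detected with a PE-labelled secondary antibody, reported as flow cytometry MFI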
measurement name: DC MFI

binder	measurement name	reading
C-87 (antibody, V domains shown, human IgG1) VH: QLQLQESGPGLVKPSETLSLTCTVSGGSISSSSYAWGWIRQPPGKGLEWIGSIYYSGSTYYNPSLKSRVTISVDTSKNQFSLKLSSVTAADTAVYYCARDPLYPLTPYGMDVWGQGTTVTVSS VL: EIVMTQSPATLSLSPGERATLSCRASQSVSSYLAWYQQKPGQAPRLLIYDASNRATGIPARFSGSGSGTDFTLTISSLEPEDFAVYYCQQLSVFPPTFGGGTKVEIK	DC MFI	172
C-42 (antibody, V domains shown, human IgG1) VH: QLQLQESGPGLVKPSETLSLTCTVSGGSISSSSYYWGWIRQPPGKGLEWIGSIYYSGSTYYNPSLKSRVTISVDTSKNQFSLKLSSVTAADTAVYYCAREPIYRRGMDVWGQGTTVTVSS VL: EIVLTQSPATLSLSPGERATLSCRASQSVSSYLAWYQQKPGQAPRLLIYDASNRATGIPARFSGSGSGTDFTLTISSLEPEDFAVYYCQQFSNYPTFGGGTKVEIK	DC MFI	1130
C-3 (antibody, V domains shown, human IgG1) VH: QVQLVQSGAEVKKPGSSVKVSCKASGGTFSNYAISWVRQAPGQGLEWMGGIIPIFGTANYAQKFQGRVTITADESTSTAYMELSSLRSEDTAVYYCARDTGTYVTGDGMDVWGQGTTVTVSS VL: EIVMTQSPATLSVSPGERATLSCRASQSVSSNLAWYQQKPGQAPRLLIYGASTRATGIPARFSGSGSGTEFTLTISSLQSEDFAVYYCQQYDVWPITFGGGTKVEIK	DC MFI	1520
